# target_of_assay: Cysteine protease falcipain-3 (Plasmodium falciparum)
# Sequence (Q9NAW4 whole entry): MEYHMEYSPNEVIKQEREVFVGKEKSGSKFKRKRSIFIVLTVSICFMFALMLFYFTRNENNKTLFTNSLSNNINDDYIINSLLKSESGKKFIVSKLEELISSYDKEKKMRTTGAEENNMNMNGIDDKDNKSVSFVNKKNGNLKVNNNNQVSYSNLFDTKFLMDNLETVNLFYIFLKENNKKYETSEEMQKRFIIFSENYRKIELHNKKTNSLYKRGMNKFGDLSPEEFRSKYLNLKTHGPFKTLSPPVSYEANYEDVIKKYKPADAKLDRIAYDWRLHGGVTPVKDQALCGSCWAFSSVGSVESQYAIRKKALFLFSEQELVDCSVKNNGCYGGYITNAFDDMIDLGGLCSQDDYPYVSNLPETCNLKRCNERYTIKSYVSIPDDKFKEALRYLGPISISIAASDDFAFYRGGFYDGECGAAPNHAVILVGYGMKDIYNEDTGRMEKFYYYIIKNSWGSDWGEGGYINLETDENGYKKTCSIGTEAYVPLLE
# assay_details: Inhibition of Cysteine protease falcipain-3 in Plasmodium falciparum HB3 infected erythrocytes by Z-Phe-Arg-AMC substrate hydrolysis assay
measured_property: pIC50
One number for each entry, as −log10 of the molar value.

Give its pIC50 value. Item: CC(=O)N[C@@H](CC(C)C)C(=O)N[C@@H](CC(C)C)C(=O)N[C@H](C=O)CCCNC(=N)N [LEUPEPTIN] 7.06

###

# target_of_assay: Cysteine protease falcipain-3 (Plasmodium falciparum, UniProt Q9NAW4)
# assay_details: Inhibition of Cysteine protease falcipain-3 in Plasmodium falciparum HB3-leuR1 mutant infected erythrocytes by Z-Phe-Arg-AMC substrate hydrolysis assay
measured_property: pIC50
Numbers only, as −log10 of the molar value.

Give its pIC50 value. Item: `CC(=O)N[C@@H](CC(C)C)C(=O)N[C@@H](CC(C)C)C(=O)N[C@H](C=O)CCCNC(=N)N` 7.01

###

# target_of_assay: Falcipain 2 (Plasmodium falciparum, UniProt Q9N6S8)
# assay_details: Inhibition of Cysteine protease falcipain-2 in Plasmodium falciparum HB3 infected erythrocytes by Z-Phe-Arg-AMC substrate hydrolysis assay
measured_property: IC50
Give your result as the value with the unit written after it.

Give its IC50 value. Item: CC(=O)N[C@@H](CC(C)C)C(=O)N[C@@H](CC(C)C)C(=O)N[C@H](C=O)CCCNC(=N)N [LEUPEPTIN] 87 nM

###

# target_of_assay: Falcipain 2 (Plasmodium falciparum, UniProt Q9N6S8)
# assay_details: Inhibition of Cysteine protease falcipain-2 in Plasmodium falciparum HB3-leuR1 mutant infected erythrocytes by Z-Phe-Arg-AMC substrate hydrolysis assay
measured_property: IC50 (nM)
Give bare numbers, in nM.

Give its IC50 value. Item: `CC(=O)N[C@@H](CC(C)C)C(=O)N[C@@H](CC(C)C)C(=O)N[C@H](C=O)CCCNC(=N)N` 98

###

# assay_details: Inhibition of single PSAC in erythrocytes infected with leupeptin resistant-Plasmodium falciparum HB3-leuR1 cell attached patch clamp method
# Format: cell-based
measured_property: IC50

Give its IC50 value. Item: O=C(CCc1ccc(O)cc1)c1c(O)cc(O)cc1O[C@@H]1O[C@H](CO)[C@@H](O)[C@H](O)[C@H]1O [PHLORIZIN] 340 µM
